Data origin: ChEMBL document CHEMBL5291721

test target: Adenosine receptor A3 (Homo sapiens); further: assay procedure not described here
Sequence (P0DMS8 whole entry): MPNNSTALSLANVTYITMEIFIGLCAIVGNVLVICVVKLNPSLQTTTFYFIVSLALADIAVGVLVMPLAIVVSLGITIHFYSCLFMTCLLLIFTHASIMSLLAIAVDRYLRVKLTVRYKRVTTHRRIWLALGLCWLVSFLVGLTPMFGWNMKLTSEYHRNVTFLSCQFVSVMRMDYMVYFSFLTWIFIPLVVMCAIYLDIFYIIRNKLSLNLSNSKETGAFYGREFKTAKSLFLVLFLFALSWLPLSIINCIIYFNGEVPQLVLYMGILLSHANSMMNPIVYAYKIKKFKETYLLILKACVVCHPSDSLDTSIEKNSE
measurement type: AC50

For every item below, please supply its AC50.
1. CCCNC(C)C(=O)Nc1ccccc1C (stereo not given)
2. CC(=O)/N=c1/sc(S(N)(=O)=O)nn1C [METHAZOLAMIDE]
3. O=C1NC(=O)C(c2ccccc2)(c2ccccc2)N1
4. Nc1ccn([C@@H]2O[C@H](CO)[C@@H](O)C2(F)F)c(=O)n1
5. COc1cc(OC)c(C(=O)CCCN2CCCC2)c(OC)c1

Ans.
["> 30 µM", "> 10 µM", "> 30 µM", "> 30 µM", "> 30 µM"]

###

test target: UniProt:P41595
Sequence (P41595 whole entry): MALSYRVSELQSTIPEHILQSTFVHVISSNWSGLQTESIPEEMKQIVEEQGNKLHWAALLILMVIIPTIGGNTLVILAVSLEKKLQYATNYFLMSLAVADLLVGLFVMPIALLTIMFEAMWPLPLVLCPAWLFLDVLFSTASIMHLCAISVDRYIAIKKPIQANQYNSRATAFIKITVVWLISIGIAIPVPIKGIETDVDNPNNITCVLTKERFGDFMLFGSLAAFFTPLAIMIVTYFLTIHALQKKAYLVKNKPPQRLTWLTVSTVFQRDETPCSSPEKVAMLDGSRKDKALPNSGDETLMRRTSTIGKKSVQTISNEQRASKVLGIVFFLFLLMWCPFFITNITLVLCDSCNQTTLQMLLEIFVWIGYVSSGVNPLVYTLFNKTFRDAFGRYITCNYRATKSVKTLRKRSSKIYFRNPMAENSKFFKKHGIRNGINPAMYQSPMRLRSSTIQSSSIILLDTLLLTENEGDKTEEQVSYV
Format: functional, cell-based
measurement type: AC50

For every item below, please supply its AC50.
1. CC(C)N(CCCCOCC(=O)NS(C)(=O)=O)c1cnc(-c2ccccc2)c(-c2ccccc2)n1
2. C#C[C@]1(O)CC[C@H]2[C@@H]3CCC4=CC(=O)CCC4=C3C=C[C@@]21CC
3. CN(C)c1cc(NC(=O)CNC(C)(C)C)c(O)c2c1C[C@H]1C[C@H]3[C@H](N(C)C)C(O)=C(C(N)=O)C(=O)[C@@]3(O)C(O)=C1C2=O

Ans.
["12 µM", "24 µM", "> 30 µM"]

For every item below, please supply its AC50.
1. CCN(CC)C(=O)C1CN2CCc3cc(OC)c(OC)cc3C2CC1OC(C)=O (stereo unspecified) [BENZQUINAMIDE]
2. NS(=O)(=O)c1cc2c(cc1C(F)(F)F)NC(Cc1ccccc1)NS2(=O)=O (stereo unspecified) [BENDROFLUMETHIAZIDE]
3. CC(C)c1cc2c(cc1S(=O)(=O)O)[C@@]1(C)CCC[C@@](C)(C(=O)O)[C@@H]1CC2
4. CN1CCN(CCCN2c3ccccc3Sc3ccc(S(=O)(=O)N(C)C)cc32)CC1
5. CCOC(=O)NNc1ccc(N(CC)CC(C)O)nn1 (stereo unspecified)
6. CNCC[C@@H](Oc1ccccc1C)c1ccccc1

Ans.
1: 0.32 µM; 2: > 10 µM; 3: > 30 µM; 4: > 30 µM; 5: > 30 µM; 6: 25 µM

For every item below, please supply its AC50.
1. CCN(CC)C(=O)C1(c2ccccc2)CC1CN (stereo unspecified)
2. CC(C)(C)NCC(O)c1cc(Cl)c(N)c(Cl)c1 (stereo unspecified)
3. CC(=O)OCC(CCn1cnc2cnc(N)nc21)COC(C)=O
4. CC(C)=CCOc1ccc(/C=C/C(=O)c2ccc(OCC=C(C)C)cc2OCC(=O)O)cc1
5. CC(=O)Nc1c(I)c(C(=O)N[C@H]2C(O)O[C@H](CO)[C@@H](O)[C@@H]2O)c(I)c(N(C)C(C)=O)c1I (stereo partly specified) [METRIZAMIDE]

Ans.
1: > 30 µM; 2: > 30 µM; 3: > 10 µM; 4: > 30 µM; 5: > 10 µM
